meta.source: patent US7714146B2

experimental_system: human FLT-3 (Arg571-Ser993) (Homo sapiens)
Construct: human FLT-3 (Arg571-Ser993); GST (N); purchased Cell Signaling Technology; host or cells: baculovirus expression system
measurement_description: FLT-3 kinase assay (HTScan kit, DELFIA)
Assay type: biochemical
recorded_conditions: compound at 1 μM; read-out: FLT-3 1 μM, % of inhibition relative to control
// label = Y if inhibition at 1 µM is not less than 40%, otherwise N

# smiles_data, class_assignment
measured = [
    ("O=C1Nc2ccc([N+](=O)[O-])cc2/C1=C/c1ccc2cccccc1-2", "N"),
    ("O=C1Nc2c(Cl)cccc2/C1=C/c1ccc2cccccc1-2", "N"),
    ("Cc1cc(C=C2C(=O)Nc3ccc(C(F)(F)F)cc32)c2ccccc(OCCCN(C)C)c1-2", "Y"),
    ("CCN(CC)CCCOc1ccccc2c(C=C3C(=O)Nc4ccc(F)cc43)cc(C)c1-2", "Y"),
    ("Cc1cc(C=C2C(=O)Nc3cc(C(F)(F)F)ccc32)c2ccccc(OCCCN(C)C)c1-2", "N"),
    ("COc1ccc2c(c1)NC(=O)/C2=C/c1ccc2cccccc1-2", "N"),
    ("Cc1cc(C=C2C(=O)Nc3ccc(S(=O)(=O)NCCCN4CCN(C)CC4)cc32)c2cccccc1-2", "N"),
]

====

experimental_system: human VEGFR-2 (Val789-Val1356) (Homo sapiens, UniProt P35968)
Construct: human VEGFR-2 (Val789-Val1356); GST (N); purchased Cell Signaling Technology; host or cells: baculovirus expression system
Sequence (P35968 789-1356): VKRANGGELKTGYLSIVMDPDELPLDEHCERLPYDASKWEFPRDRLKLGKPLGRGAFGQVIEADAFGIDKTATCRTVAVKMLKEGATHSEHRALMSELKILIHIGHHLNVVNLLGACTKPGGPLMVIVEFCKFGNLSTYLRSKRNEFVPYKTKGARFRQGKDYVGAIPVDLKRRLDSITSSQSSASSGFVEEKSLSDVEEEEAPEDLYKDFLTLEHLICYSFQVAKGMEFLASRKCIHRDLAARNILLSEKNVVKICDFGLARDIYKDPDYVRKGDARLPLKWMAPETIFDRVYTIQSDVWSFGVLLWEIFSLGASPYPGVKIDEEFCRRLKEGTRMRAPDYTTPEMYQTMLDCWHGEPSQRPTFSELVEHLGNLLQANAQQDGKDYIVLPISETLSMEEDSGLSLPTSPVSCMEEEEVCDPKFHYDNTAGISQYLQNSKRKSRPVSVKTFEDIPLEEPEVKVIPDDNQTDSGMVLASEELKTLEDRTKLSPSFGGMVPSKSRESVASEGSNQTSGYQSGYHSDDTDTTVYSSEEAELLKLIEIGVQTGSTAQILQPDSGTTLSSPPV
measurement_description: KDR kinase assay (HTScan VEGFR-2 kit, DELFIA)
Assay type: biochemical
recorded_conditions: compound at 1 μM; read-out: KDR 1 μM, % of inhibition relative to control
quantity_name: inhibition at 1 µM

# smiles_data, result
data = [
    ("O=C1Nc2ccc([N+](=O)[O-])cc2/C1=C/c1ccc2cccccc1-2", "55.9%"),
    ("Cc1c2cccccc-2c(C)c1/C=C1/C(=O)Nc2ccc(F)cc21", "40.6%"),
    ("Cc1cc(C=C2C(=O)Nc3cc(F)ccc32)c2ccccc(OCCCN(C)C)c1-2", "9.4%"),
    ("Cc1cc(C=C2C(=O)Nc3ccc(F)cc32)c2ccccc(OCCCN3CCN(C)CC3)c1-2", "89.8%"),
    ("CN(C)CCNC(=O)c1cc(/C=C2/C(=O)Nc3ccc(F)cc32)c2cccccc1-2", "7.4%"),
    ("CCOC(=O)N1CCC(Nc2ccc3c(c2)/C(=C\\c2cc(C)c4c(OCCCN(C)C)ccccc2-4)C(=O)N3)CC1", "4.4%"),
    ("CCc1cc(C=C2C(=O)Nc3ccc(F)cc32)c2cccccc1-2", "32%"),
    ("O=C1Nc2ccccc2/C1=C/c1cc2cccccc-2c1", "50.8%"),
]

====

experimental_system: human FLT-3 (Arg571-Ser993) (Homo sapiens)
Construct: human FLT-3 (Arg571-Ser993); GST (N); purchased Cell Signaling Technology; host or cells: baculovirus expression system
Sequence (P36888 571-993): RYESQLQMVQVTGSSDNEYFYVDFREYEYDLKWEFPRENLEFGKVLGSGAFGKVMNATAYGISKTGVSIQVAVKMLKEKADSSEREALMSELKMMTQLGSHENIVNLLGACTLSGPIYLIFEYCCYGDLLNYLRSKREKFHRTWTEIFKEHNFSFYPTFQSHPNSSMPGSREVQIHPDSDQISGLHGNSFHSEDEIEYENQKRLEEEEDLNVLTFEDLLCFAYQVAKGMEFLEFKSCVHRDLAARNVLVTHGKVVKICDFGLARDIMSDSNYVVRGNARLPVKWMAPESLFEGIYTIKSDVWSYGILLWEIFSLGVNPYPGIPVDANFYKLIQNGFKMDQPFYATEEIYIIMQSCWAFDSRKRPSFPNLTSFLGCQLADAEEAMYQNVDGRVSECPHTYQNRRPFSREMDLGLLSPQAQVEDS
measurement_description: FLT-3 kinase assay (HTScan kit, DELFIA)
Type: biochemical
recorded_conditions: compound at 1 μM; read-out: FLT-3 1 μM, % of inhibition relative to control
The threshold is inclusive: inhibition at 1 µM of exactly 50% counts as TRUE; values below receive FALSE.

# compound, class_assignment
data = [
    ("O=C1/C(=C/c2ccc3cccccc2-3)c2ccccc2N1C(c1ccccc1)c1ccccc1 [Compound 3]", "FALSE"),
    ("Cc1ccc2c(c1)/C(=C\\c1c3cccccc-3nc1N)C(=O)N2 [Compound 54]", "TRUE"),
    ("CNS(=O)(=O)c1ccc2c(c1)/C(=C\\c1cc(C)c3c(OCCCN(C)C)ccccc1-3)C(=O)N2 [Compound 88]", "FALSE"),
    ("COc1ccc2c(c1)NC(=O)/C2=C\\c1ccc2cccccc1-2 [Compound 31]", "FALSE"),
    ("Cc1cc(/C=C2/C(=O)Nc3ccc(F)cc32)c2ccccc(OCCCN(C)C)c1-2 [Compound 68]", "TRUE"),
    ("O=C1Nc2cc(Br)ccc2/C1=C\\c1ccc2cccccc1-2 [Compound 28]", "FALSE"),
    ("O=C1Nc2cc(Br)ccc2/C1=C/c1ccc2cccccc1-2 [Compound 29]", "TRUE"),
    ("O=C1Nc2ccccc2/C1=C\\c1ccc2cccccc1-2 [Compound 19]", "FALSE"),
    ("CCc1cc(C=C2C(=O)Nc3ccc(F)cc32)c2cccccc1-2 [Compound 80]", "FALSE"),
]
